- target.desc: Recombinant ROCK1 (amino acids 1-477) (Homo sapiens)
- Construct: Recombinant ROCK1 (amino acids 1-477); by word order, ROCK1 from Carna Biosciences
- Sequence (Q13464 1-477): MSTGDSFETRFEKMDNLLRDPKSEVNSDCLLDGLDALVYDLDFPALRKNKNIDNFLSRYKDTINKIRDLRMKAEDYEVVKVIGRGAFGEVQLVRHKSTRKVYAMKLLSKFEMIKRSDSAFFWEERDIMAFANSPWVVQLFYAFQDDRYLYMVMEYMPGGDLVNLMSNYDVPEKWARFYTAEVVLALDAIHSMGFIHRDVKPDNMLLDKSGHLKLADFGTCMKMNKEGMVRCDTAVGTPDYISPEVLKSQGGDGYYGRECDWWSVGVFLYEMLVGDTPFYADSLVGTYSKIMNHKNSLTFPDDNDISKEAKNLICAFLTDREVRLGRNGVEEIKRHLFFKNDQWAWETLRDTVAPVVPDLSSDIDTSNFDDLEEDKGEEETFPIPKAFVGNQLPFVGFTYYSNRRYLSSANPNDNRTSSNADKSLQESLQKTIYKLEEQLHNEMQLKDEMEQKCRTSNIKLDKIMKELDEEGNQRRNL
- test.description: ROCK inhibition assay, LANCE Ultra TR-FRET kinase assay (ROCK1)
- run.parameters: 1 μM ATP, 50 nM ULight-CREBtide substrate
- Protocol: Kinase IC50 was determined through an in vitro assay based on LANCE Ultra TR-FRET (Time-Resolved Fluorescence Resonance Energy Transfer) homogeneous technologies method (Perkin Elmer). […] Compound activities were measured by Envision and IC50s were calculated. […] The reaction was incubated for 1 hour, and the signal was read in Envision in TR-FRET mode (excitation at 320 nm and emission at 615/665 nm). […]
pIC50: −log10 of the molar value.
quantity.kind: pIC50

// below: answered compounds
[
  {
    "compound": "Cn1nccc1-c1ccc2c(=O)n(Cc3cccc(C(=O)NCC4CC(O)C4)c3)ccc2c1 (stereo not shown) [Compound 112]",
    "pIC50": "6.30 to 7.00"
  },
  {
    "compound": "CC(C)NC(=O)c1cc(F)cc(Cn2ccc3cc(-c4c[nH]nc4Cl)ncc3c2=O)c1 [Compound 264]",
    "pIC50": "7.00 to 7.96"
  },
  {
    "compound": "CNC(=O)c1cc(F)cc(Cn2ccc3cc(-c4cn[nH]c4C(F)(F)F)ccc3c2=O)c1 [Compound 281]",
    "pIC50": "7.00 to 7.96"
  }
]

Turning to the following compound.
Recombinant ROCK1 (amino acids 1-477) (Homo sapiens) data for CNC(=O)c1cccc(C(C)n2cnc3cc(-c4ccnn4C)ccc3c2=O)c1 (stereo not shown) [Compound 426] ; its pIC50: 7.00 to 7.96

Measured values drawn from patent US12064426B2 for this set.
